- ASSAY_SYSTEM: T1, recombinant human IL1RAP ECD (human, UniProt Q9NPH3 21-367)
- T1 construct: His-tagged; also called hIL1RAP-ECD; rhuIL1RAP
- T1 sequence: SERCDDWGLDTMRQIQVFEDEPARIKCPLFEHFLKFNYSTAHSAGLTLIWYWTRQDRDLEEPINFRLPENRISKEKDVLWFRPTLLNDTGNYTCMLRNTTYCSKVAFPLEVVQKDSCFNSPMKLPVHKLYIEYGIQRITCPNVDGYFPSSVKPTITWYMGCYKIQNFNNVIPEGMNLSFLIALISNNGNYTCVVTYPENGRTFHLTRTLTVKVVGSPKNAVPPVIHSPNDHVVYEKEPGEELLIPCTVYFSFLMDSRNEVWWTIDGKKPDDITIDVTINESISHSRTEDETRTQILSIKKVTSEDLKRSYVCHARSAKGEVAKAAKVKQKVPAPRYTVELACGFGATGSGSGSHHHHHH
- METHOD_DESCRIPTION: SPR, summary
pKd: −log10 of the molar value.
# pKd annotations
ENDPOINT_LABEL: pKd

BINDER	ENDPOINT_LABEL	RECORDED_RESULT
IAPB54 (antibody, human IgG4 S228P, lambda, F234A L235A, V domains shown, IgG4-PAA; also called 17B04 with human IgG4-PAA) VH: QVQLVQSGSELKKPGASVKVSCKASGYTFNTYAMNWVRQAPGQGLEWMGWINTNTGNPTYAQGFTGRFVFSLDTSVSTAYLQISSLKAEDTAVYYCARRYFDWLLGAFDIWGQGTMVTVSS VL: QSALTQPRSVSGSPGHSVTISCTGTSSDVGDYNYVSWYQQRPGKVPKLLIYDVSKRPSGVPDRFSGSKSGNTASLTISGLQAEDEAIYFCCSYAGNYNVVFGGGTKLTVLG	pKd	9.24
IAPB23 (antibody, human IgG4 S228P, kappa, F234A L235A, V domains shown, IgG4-PAA; whole chains) VH: EVQLLESGGGLVQPGGSLRLSCAASGFTFSNYWMNWVRQAPGKGLEWVSAIRYDGGSKYYADSVKGRFTISRDNSKNTLYLQMNSLRAEDTAVYYCAKDAYPPYSFDYWGQGTLVTVSS VL: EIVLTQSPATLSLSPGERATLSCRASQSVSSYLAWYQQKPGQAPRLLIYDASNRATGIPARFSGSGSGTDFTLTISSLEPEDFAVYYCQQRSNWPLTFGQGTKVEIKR	pKd	8.33
IAPB64 (antibody, human IgG4 S228P, lambda, F234A L235A, V domains shown, IgG4-PAA; whole chains; also called IAPB54-LC-C91S) VH: QVQLVQSGSELKKPGASVKVSCKASGYTFNTYAMNWVRQAPGQGLEWMGWINTNTGNPTYAQGFTGRFVFSLDTSVSTAYLQISSLKAEDTAVYYCARRYFDWLLGAFDIWGQGTMVTVSS VL: QSALTQPRSVSGSPGHSVTISCTGTSSDVGDYNYVSWYQQRPGKVPKLLIYDVSKRPSGVPDRFSGSKSGNTASLTISGLQAEDEAIYFCSSYAGNYNVVFGGGTKLTVLG	pKd	9.42
